target: Genome polyprotein; test: Inhibition of Dengue virus serotype 1 NS2B-NS3 protease preincubated for 20 mins followed by Abz-RRRRSAG-nY-NH2 addition and measured for 60 mins by fluorescence method
Sequence (P29990 1346-1475 limits assumed): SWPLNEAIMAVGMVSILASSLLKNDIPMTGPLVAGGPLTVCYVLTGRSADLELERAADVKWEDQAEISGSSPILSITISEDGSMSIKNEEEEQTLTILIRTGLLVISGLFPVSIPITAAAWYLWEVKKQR
Sequence (P29990 1476-2093 limits assumed): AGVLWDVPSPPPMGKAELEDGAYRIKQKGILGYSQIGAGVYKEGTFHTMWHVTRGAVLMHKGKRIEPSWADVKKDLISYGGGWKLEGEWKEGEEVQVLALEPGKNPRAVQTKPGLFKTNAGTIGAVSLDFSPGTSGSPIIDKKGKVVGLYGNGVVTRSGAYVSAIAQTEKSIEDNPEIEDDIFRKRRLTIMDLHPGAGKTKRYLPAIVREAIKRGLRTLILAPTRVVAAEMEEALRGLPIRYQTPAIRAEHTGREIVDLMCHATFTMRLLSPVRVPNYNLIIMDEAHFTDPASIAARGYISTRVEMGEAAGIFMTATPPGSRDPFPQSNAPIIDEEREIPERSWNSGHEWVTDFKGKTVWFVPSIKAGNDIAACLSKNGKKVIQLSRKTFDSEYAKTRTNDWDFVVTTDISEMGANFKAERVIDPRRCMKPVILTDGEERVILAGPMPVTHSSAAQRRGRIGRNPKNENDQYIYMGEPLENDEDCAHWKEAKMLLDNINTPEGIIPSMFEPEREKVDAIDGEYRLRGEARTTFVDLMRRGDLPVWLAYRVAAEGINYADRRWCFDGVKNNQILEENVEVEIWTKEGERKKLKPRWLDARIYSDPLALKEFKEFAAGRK
Non-standard residues stand in square brackets, D forms with d. Residues, ends and D or L forms follow the SMILES beside them. Trp(5-NO2) = N[C@@H](Cc1c[nH]c2ccc([N+](=O)[O-])cc12)C(=O)O; 2Abz = Nc1ccccc1C(=O)O
I'd be grateful if you could share measured pKi for these entries.
The quantity pKi is defined as the negative base-10 logarithm of the molar concentration.

Qu. Write down the reported pKi of CC(=O)N[C@@H](CCCNC(=N)N)C(=O)N[C@@H](CCCNC(=N)N)C(=O)N[C@@H](CCCNC(=N)N)C(=O)N[C@@H](CCCNC(=N)N)C(=O)N[C@@H](Cc1cnc[nH]1)C(=O)N[C@@H](Cc1c[nH]c2ccccc12)C(=O)N[C@@H](CS)C(=O)N[C@@H](Cc1c[nH]c2ccccc12)C(N)=O (Ac-RRRRHWCW-NH2) , test system: Genome polyprotein.
Ans. 6.40

Qu. Write down the reported pKi of CC(C)C[C@H](NC(=O)[C@H](Cc1cnc[nH]1)NC(=O)[C@H](CCCNC(=N)N)NC(=O)[C@H](CCCNC(=N)N)NC(=O)[C@H](CCCNC(=N)N)NC(=O)[C@H](CCCNC(=N)N)NC(=O)c1ccccc1N)C(=O)N[C@@H](CS)C(=O)N[C@@H](Cc1c[nH]c2ccc([N+](=O)[O-])cc12)C(N)=O (H-[2Abz]RRRRHLC[Trp(5-NO2)]-NH2) , test system: Genome polyprotein.
Ans. 6.52

Qu. Write down the reported pKi of CC(C)C[C@H](NC(=O)[C@H](Cc1cnc[nH]1)NC(=O)[C@H](CCCNC(=N)N)NC(=O)[C@H](CCCNC(=N)N)NC(=O)[C@H](CCCNC(=N)N)NC(=O)[C@@H](N)CCCNC(=N)N)C(=O)N[C@@H](CS)C(=O)N[C@@H](Cc1c[nH]c2ccccc12)C(N)=O (H-RRRRHLCW-NH2) , test system: Genome polyprotein.
Ans. 6.52

Qu. Write down the reported pKi of N=C(N)NCCC[C@H](NC(=O)[C@H](CCCNC(=N)N)NC(=O)[C@H](CCCNC(=N)N)NC(=O)[C@@H](N)CCCNC(=N)N)C(=O)N[C@@H](Cc1cnc[nH]1)C(=O)N[C@@H](Cc1c[nH]c2ccccc12)C(=O)N[C@@H](CS)C(=O)N[C@@H](Cc1c[nH]c2ccccc12)C(N)=O (H-RRRRHWCW-NH2) , test system: Genome polyprotein.
Ans. 6.40

====

biological target: Genome polyprotein (West Nile virus); assay: Inhibition of West Nile virus protease
Sequence (P06935 1371-1501 limits assumed): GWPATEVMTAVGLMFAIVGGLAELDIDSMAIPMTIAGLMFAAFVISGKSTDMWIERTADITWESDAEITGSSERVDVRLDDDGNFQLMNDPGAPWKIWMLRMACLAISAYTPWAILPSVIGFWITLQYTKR
Sequence (P06935 1502-2120 limits assumed): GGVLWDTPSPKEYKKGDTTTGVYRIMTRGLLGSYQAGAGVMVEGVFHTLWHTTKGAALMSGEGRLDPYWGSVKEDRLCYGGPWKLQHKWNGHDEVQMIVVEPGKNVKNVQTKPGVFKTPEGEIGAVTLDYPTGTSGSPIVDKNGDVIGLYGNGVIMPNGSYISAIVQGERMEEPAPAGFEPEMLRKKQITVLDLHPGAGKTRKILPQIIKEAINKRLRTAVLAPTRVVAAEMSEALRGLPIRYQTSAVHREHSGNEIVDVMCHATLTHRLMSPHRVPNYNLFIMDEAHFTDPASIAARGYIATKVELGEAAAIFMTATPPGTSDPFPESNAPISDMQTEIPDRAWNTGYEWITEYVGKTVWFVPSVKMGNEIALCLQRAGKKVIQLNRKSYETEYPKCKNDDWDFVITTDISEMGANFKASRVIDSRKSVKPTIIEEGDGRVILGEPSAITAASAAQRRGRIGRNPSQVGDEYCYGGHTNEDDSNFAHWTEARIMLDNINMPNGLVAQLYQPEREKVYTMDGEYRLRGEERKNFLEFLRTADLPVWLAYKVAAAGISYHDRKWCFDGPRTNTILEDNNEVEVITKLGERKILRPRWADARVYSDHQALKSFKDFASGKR
reported metric: IC50 (nM)
Numbers only here, please. The scale is nM.

Qu. Fill in the blank: the reported IC50 of `N=C(N)NCCC[C@@H](C=O)NC(=O)[C@H](CCCCN)NC(=O)[C@H](CCCCN)NC(=O)Cc1ccc(-c2ccccc2)cc1` is ____.
Ans. 56

====

target: UniProt P06935; assay: Inhibition of West Nile virus NS2B-NS3 protease preincubated for 1 hr followed by Pyr-RTKR-AMC addition and measured after 30 mins by fluorescence method
reported metric: pIC50
The quantity pIC50 is defined as the negative base-10 logarithm of the molar concentration.

Qu. Fill in the blank: the reported pIC50 of `CC(=O)N[C@@H](CCCCN)C(=O)N[C@@H](CCCCN)C(=O)NCCCCNC(=N)N` is ____.
Ans. 4.73
